- target under test: BM-4831-CoV receptor-binding domain (RBD) (Bat coronavirus BM48-31/BGR/2008)
- test summary: ELISA
observation type: binding result

- binder: "psNb 1-22 (VHH) VHH: HVQLVESGGGLVQPGGSLRLSCAASGRSFNSYLMGWFRQAPGKEREFVAWISGSPHDIIRYRDSVKDRFTISRDNAKNTVYLQMNSLKPVDTAVYYCAVGSLRVGSFSPDYWGQGTQVTVSS"
  value reported: "binds"
- binder: "psNb 1-23 (VHH) VHH: QVQLVESGGGLVQAGGSLRLSCAASGRTDSISDMGWFRQAPGKEREFVAVVGWSGGGTDYAHSVKGRFTISRDNAKNTVYLQMNSLKPEDTAVYYCAVGSLRVGSFSVEYWGQGTQVTVSS"
  value reported: "binds"
- binder: "psNb 2-34 (VHH) VHH: HVQLVESGGGLVQAGGSLRLSCAASGRTFSRYAAGWFRQAPGKEREFVAVIEWDGDSAYYADPVKGRFTISRDNAKNTVYLQMNRLKPEDTAVYICAVGGNHYSRSKYYNLDEYDDWGQGTQVTVSS"
  value reported: "binds"
